Quick list: EC50 vpac2 (Molar), cell-based cAMP assay per entry.
# study.system: T1, VPAC2 receptor (UniProt P41587 24-438, limits assumed)
# T1 sequence (looked up): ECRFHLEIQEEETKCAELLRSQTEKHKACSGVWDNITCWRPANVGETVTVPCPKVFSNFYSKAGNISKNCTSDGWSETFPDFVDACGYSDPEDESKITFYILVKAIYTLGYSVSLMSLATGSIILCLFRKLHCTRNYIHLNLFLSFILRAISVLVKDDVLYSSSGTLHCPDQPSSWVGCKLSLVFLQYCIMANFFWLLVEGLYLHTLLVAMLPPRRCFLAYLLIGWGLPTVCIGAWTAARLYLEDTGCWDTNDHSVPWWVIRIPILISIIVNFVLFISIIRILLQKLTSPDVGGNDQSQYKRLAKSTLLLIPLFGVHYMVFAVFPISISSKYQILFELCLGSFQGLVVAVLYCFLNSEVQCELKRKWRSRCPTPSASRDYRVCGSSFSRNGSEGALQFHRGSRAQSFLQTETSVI
# procedure.summary: cell-based or functional assay
Primed or numbered codes have the meaning given here. Where no end group is shown, it is not given here. [ ]: non-standard residue; d: D form. APC″ = 3-aminopyrrolidine-4-carboxylic acid (cyclic β-amino acid); ACPC″ = 2-aminocyclopentanecarboxylic acid (x in the sequences); APC = 3-aminopyrrolidine-4-carboxylic acid; ACPC = 2-aminocyclopentanecarboxylic acid; β3hY = N[C@H](CC(=O)O)Cc1ccc(O)cc1; β3hR = N=C(N)NCCC[C@H](N)CC(=O)O; β3hL = CC(C)C[C@H](N)CC(=O)O; β3hK = NCCCC[C@H](N)CC(=O)O; β3hV = CC(C)[C@H](N)CC(=O)O; Aib = CC(C)(N)C(=O)O; βAla = NCCC(=O)O
Please reply with the bare figure in nM and do not write the unit itself.

Could you tell me which EC50 vpac2 (Molar), cell-based cAMP assay is on file for Ac-HSDAVFTENYTKLRKQLAA[APC]KY[ACPC]NDL[β3hK]KG[βAla]T (not fully specified (C-terminus); printed as Ac-HSDAVFTENYTKLRKQLAAzKYxNDLkKGgT) [LBT-V202] ?
0.963

Another binder to look at: Ac-H[ACPC″]DA[β3hV]FTENYTKL[β3hR]KQLAA[APC″]KY[ACPC″]NDL[β3hK]KG[βAla]T (not fully specified (C-terminus); printed as Ac-HxDAvFTENYTKLrKQLAAzKYxNDLkKGgT) [LBT-V214]
1.37

Try the binder Ac-H[Aib]DA[β3hV]FTENYTKLRKQLAA[APC]KY[ACPC]NDL[β3hK]KG[βAla]T (not fully specified (C-terminus); printed as Ac-HBDAvFTENYTKLRKQLAAzKYxNDLkKGgT) [LBT-V205]
0.816

Now give it for Ac-H[ACPC″]DA[β3hV]FTENYTK[β3hL]RKQLAA[APC″]KY[ACPC″]NDL[β3hK]KG[βAla]T (not fully specified (C-terminus); printed as Ac-HxDAvFTENYTKlRKQLAAzKYxNDLkKGgT) [LBT-V215] too.
1.33

Same question, Ac-H[ACPC″]DA[ACPC″]FTE[ACPC″][β3hY]TKLRKQ[β3hL]AA[APC″]KY[ACPC″]NDL[β3hK]KG[βAla]T (not fully specified (C-terminus); printed as Ac-HxDAxFTExyTKLRKQlAAzKYxNDLkKGgT) [LBT-V217] this time
1.17
